Each entry below lists one item and its recorded Initial fluorescence (×10^3) value.
experimental_details: Retention of peptides 2DOS-1 to 2DOS-16 on a hydrophobic surface (polypropylene microtitre plate wells), water wash
Format: physicochemical
details: 400V scan; 100 μl of 10 μM peptide before drying and washing
Ends that are not written are not given here.

Notebook: N-TAMPA-Asp-Asp- Ala-Asp-Ser-Asp- Lys-C ({TAMRA}-DDADSDK) [Peptide 2DOS-8] , Initial fluorescence (×10^3) read as 33,615 ×10^3

Notebook: N-TAMRA-Ser-Asp- Ser-Ala-Ser-Ser- Ser-Lys-Ser-C ({TAMRA}-SDSASSSKS) [Peptide 2DOS-3] , Initial fluorescence (×10^3) read as 32,913 ×10^3

Notebook: N-TAMPA-Asp-Asp- Asp-Ala-Asp-Ser- Asp-Lys-Asp-C ({TAMRA}-DDDADSDKD) [Peptide 2DOS-4] , Initial fluorescence (×10^3) read as 32,313 ×10^3

Notebook: N-TAMPA-Asp-Asp- Asp-Asp-Asp-Asp- Asp-Asp-Asp-C ({TAMRA}-DDDDDDDDD) [Peptide 2DOS-12] , Initial fluorescence (×10^3) read as 26,433 ×10^3

Notebook: N-TAMRA-Ser-Asp- Ser-Asp-Ser-Asp- Ser-Asp-Ser-C ({TAMRA}-SDSDSDSDS) [Peptide 2DOS-11] , Initial fluorescence (×10^3) read as 26,860 ×10^3

----------
experimental_details: Retention of peptides 2DOS-1 to 2DOS-16 on a hydrophobic surface (polypropylene microtitre plate wells), water wash
Format: physicochemical
details: 400V scan; 100 μl of 10 μM peptide before drying and washing
Ends that are not written are not given here.
attribute_measured: Initial fluorescence (×10^3)

Solved entries (count: 5):
N-TAMRA-Asp-Phe- Ala-Phe-Ser-Phe- Lys-C ({TAMRA}-DFAFSFK) [Peptide 2DOS-6] | 33,853 ×10^3
N-TAMRA-Phe-Asp- Phe-Ala-Phe-Ser- Phe-Lys-Phe-C ({TAMRA}-FDFAFSFKF) [Peptide 2DOS-2] | 32,492 ×10^3
N-TAMRA-Asp-Ser- Asp-Ser-Asp-Ser- Asp-C ({TAMRA}-DSDSDSD) [Peptide 2DOS-15] | 30,845 ×10^3
N-TAMPA-Asp-Asp- Asp-Asp-Asp-Asp- Asp-C ({TAMRA}-DDDDDDD) [Peptide 2DOS-16] | 30,335 ×10^3
N-TAMRA-Phe-Asp- Phe-Asp-Phe-Asp- Phe-Asp-Phe-C ({TAMRA}-FDFDFDFDF) [Peptide 2DOS-10] | 28,479 ×10^3

Notebook: N-TAMRA-Asp-Phe- Asp-Phe-Asp-Phe- Asp-C ({TAMRA}-DFDFDFD) [Peptide 2DOS-14] , Initial fluorescence (×10^3) read as 28,071 ×10^3

Notebook: N-TAMRA-Asp-Ser- Ala-Ser-Ser-Ser- Lys-C ({TAMRA}-DSASSSK) [Peptide 2DOS-7] , Initial fluorescence (×10^3) read as 29,134 ×10^3

----------
experimental_details: Retention of peptides P1-1 to P1-5 on a polypropylene sheet after successive washes
Type: physicochemical
details: after second wash scan; unwashed control array; background subtracted
Ends that are not written are not given here.
attribute_measured: Corrected signal, control array

TAMRA-F-G-F-G-F-G-F-S-F-A-F-D-F-G-F ({TAMRA}-FGFGFGFSFAFDFGF) [Peptide P1-3] | 50,030,806
TAMRA-F-G-F-G-F-G-F-G-F-S-F-A-F-D-F-G-F ({TAMRA}-FGFGFGFGFSFAFDFGF) [Peptide P1-4] | 42,662,569
TAMRA-F-G-F-S-F-A-F-D-F-G-F ({TAMRA}-FGFSFAFDFGF) [Peptide P1-1] | 88,584,083
TAMRA-F-G-F-G-F-S-F-A-F-D-F-G-F ({TAMRA}-FGFGFSFAFDFGF) [Peptide P1-2] | 58,801,042

Notebook: TAMRA-F-G-F-G-F-G-F-G-F-G-F-S-F-A-F-D-F-G-F ({TAMRA}-FGFGFGFGFGFSFAFDFGF) [Peptide P1-5] , Corrected signal, control array read as 53,567,975
